Record set: pIC50 | ROCK2 (Homo sapiens, UniProt O75116) | literature, multiple sources.
On this scale, pIC50 is minus log10 of a concentration expressed in M (mol/L).

Example compounds with recorded pIC50:
                                   compound  assay_metric  numeric_value
0  COc1cc(C(=O)N[C@@H](c2c(F)cccc2F)C(O)CO)ccc1-c1cn[nH]c1 (some centres unmarked)         pIC50           7.71
1  CC1(C(=O)N2Cc3ccc(-c4ncc(F)c(Nc5ccc(-c6cn[nH]c6)cc5)n4)cc3C2)CC(F)(F)C1         pIC50           7.55
2  COc1cc(C(=O)N[C@H](C)c2ccc(F)cc2)ccc1-c1cn[nH]c1         pIC50           8.57
3  COC(=O)c1cc(C(=O)N[C@H](C)c2ccc(F)cc2)ccc1-c1cn[nH]c1         pIC50           6.25
4  COc1cc(N2CCC3(CCN(C(=O)c4ccc(Cl)cn4)CC3)C2=O)ccc1-c1cn[nH]c1         pIC50           7.19

Lab note: need pIC50 for COC(=O)c1ccc2sc(NC(=O)Cc3ccc(Oc4ncccc4C(N)=O)cc3)nc2c1 on ROCK2 (Homo sapiens, UniProt O75116), anyone have it?
6.96

----------
Record set: pIC50 | ROCK2 (Homo sapiens, UniProt O75116) | literature, multiple sources.
On this scale, pIC50 is minus log10 of a concentration expressed in M (mol/L).

Example compounds with recorded pIC50:
In [3]: df
Out[3]:
                                   compound  numeric_value
0  COc1cc(N2CCC3(CCN(C(=O)c4ccc(N5CCN(Cc6nc7ccccc7s6)CC5)cc4)CC3)C2=O)ccc1-c1cn[nH]c1           8.72
1  Cn1cc(C(N)=O)c(O[C@H]2C[C@@]3(C[C@H](NC(=O)c4cnn5cc(N6CCOCC6)ccc45)C3)C2)n1 (stereo partly shown)           7.52
2  Cc1cc(C(=O)NC(C)c2cccc(O)n2)ccc1-c1cn[nH]c1 (stereo not shown)           7.33
3  Cn1c(C(=O)N2CC(F)(F)C2)cc2ccc(-c3nc(Nc4ccc(-c5cn[nH]c5)cc4)c4ccsc4n3)cc21           7.06
4  O=C(COc1cccc(CN2CCC[C@@H](Nc3ccc4[nH]ncc4c3)C2)c1)N1CCOCC1           6.99
5  COc1cc(C(=O)N[C@@H](C)c2ccccc2Cl)ccc1-c1cn[nH]c1           7.28
6  COc1cc(N2CCC3(CCN(C(=O)c4cccc5ccncc45)CC3)C2=O)ccc1-c1cn[nH]c1           6.49

Give the measured pIC50 of COc1cc(NC(=O)[C@@H](N)Cc2csc3ccccc23)ccc1-c1cn[nH]c1 .
7.75

----------
Record set: IC50 | ROCK2 (Homo sapiens) | literature, multiple sources.
Record the value in nM, omitting the unit from your answer.

Example compounds with recorded IC50:
>>> print(df.to_string())
                                   compound  numeric_value
0  COc1cc(N2CCC3(CCN(C(=O)c4ccc(N5CCN(C6CCN(C)CC6)CC5)cc4)CC3)C2=O)ccc1-c1cn[nH]c1            0.9
1  COc1cccc([C@@H](C)NC(=O)c2ccc(-c3c[nH]nc3C)cc2OCCN(C)C)c1           34.8

Below: the item to evaluate.
Give the measured IC50 of Cc1nc(O[C@H]2C[C@@]3(C[C@H](NC(=O)c4cnn(-c5ccc(C#N)cc5)c4C)C3)C2)c(C(N)=O)s1 (stereo partly shown) .
119
